# assaySystem: full length human Androgen Receptor (AR) (Homo sapiens)
# Construct: transiently transfected in T225 cm^2 flasks with a full length human Androgen Receptor (AR) cDNA; expressed in transfected cells; host or cells: CV-1 cells (ATCC CCL-70), transiently transfected with AR cDNA in pcDNA3 and ARE-luciferase in pGL3
# Sequence (P10275 1-920): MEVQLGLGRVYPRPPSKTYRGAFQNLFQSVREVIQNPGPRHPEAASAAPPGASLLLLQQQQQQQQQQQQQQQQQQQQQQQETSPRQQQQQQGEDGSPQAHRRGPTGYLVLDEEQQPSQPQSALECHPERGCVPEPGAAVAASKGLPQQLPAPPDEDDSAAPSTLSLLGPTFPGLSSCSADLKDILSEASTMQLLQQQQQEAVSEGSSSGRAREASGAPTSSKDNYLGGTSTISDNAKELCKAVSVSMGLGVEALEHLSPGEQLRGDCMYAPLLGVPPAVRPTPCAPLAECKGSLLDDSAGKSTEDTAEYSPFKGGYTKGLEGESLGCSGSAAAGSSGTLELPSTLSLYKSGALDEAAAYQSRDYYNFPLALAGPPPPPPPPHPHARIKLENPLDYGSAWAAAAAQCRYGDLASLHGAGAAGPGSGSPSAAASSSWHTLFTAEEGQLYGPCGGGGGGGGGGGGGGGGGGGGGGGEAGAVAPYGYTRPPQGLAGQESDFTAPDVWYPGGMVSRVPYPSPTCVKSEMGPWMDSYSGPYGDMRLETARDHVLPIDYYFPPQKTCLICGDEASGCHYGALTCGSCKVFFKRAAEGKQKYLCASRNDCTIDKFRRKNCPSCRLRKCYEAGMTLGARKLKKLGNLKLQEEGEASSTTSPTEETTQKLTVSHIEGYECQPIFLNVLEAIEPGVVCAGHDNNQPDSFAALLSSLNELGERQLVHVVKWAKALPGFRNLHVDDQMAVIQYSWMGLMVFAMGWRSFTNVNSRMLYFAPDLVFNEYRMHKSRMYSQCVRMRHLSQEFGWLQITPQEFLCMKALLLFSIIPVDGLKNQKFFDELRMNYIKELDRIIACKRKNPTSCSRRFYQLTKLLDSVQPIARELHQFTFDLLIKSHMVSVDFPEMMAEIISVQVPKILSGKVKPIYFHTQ
# experimentalDetails: Androgen Receptor-Mediated Transcriptional Assay (ARE-luciferase reporter in transiently transfected CV-1 cells)
# Assay type: cell-based
# Procedure: Androgen Receptor-Mediated Transcriptional Assay Summary […] On the day of the assay, frozen cells were thawed and re-suspended in Re-suspension Media and plated at 40,000 cells/well (in 100 μL volume) in 96 well white plates and were incubated for at least 4 h at 37° C., 5% CO2. […] 50 μL of luciferase reagent was added to each well and luminescence, over 5 seconds, was measured. EC50 (half maximal effective concentration) was calculated from concentration series plots which generated sigmoidal curves. […]
Reported pEC50 values follow for various compounds
Notebook: values listed as pEC50 are -log10 of the concentration (mol/L).

See these solved cases before continuing.
>  <compound>
N#Cc1nccc2cc(N3C(=O)CC[C@H]3[C@H](O)C(F)(F)F)ccc12 (single isomer, unassigned)

>  <property>
pEC50

>  <numericValue>
6.64

$$$$
>  <compound>
N#Cc1nccc2cc(N3CCC[C@@H]3[C@H](O)C(F)(F)F)ccc12 (single isomer, unassigned)

>  <property>
pEC50

>  <numericValue>
8.13

$$$$
>  <compound>
C[C@H]1CNS(=O)(=O)N1c1ccc2c(C#N)nccc2c1

>  <property>
pEC50

>  <numericValue>
7.82

$$$$
>  <compound>
C[C@H]1CNS(=O)(=O)N1c1ccc2c(C#N)cccc2c1 (single isomer, unassigned)

>  <property>
pEC50

>  <numericValue>
8.40

$$$$

*Q* Can you share its pEC50? I mean this compound: CC[C@H]1CNS(=O)(=O)N1c1ccc2c(C#N)nccc2c1 (single isomer, unassigned)
*A* 7.74

*Q* Record: N#Cc1nccc2cc(N3CCCC[C@@H]3[C@@H](O)C(F)(F)F)ccc12 (single isomer, unassigned)
*A* 7.21

*Q* Cool, now CCN1C[C@@H](C)CN(c2ccc3c(C#N)nccc3c2)S1(=O)=O (single isomer, unassigned)
*A* 6.58
